Molecular target: (NVDP)3(NANP)2 (Plasmodium falciparum)
Assay: BLI, target on sensor
Measurement type: Kd (nM)
Write it as a number; the unit nM goes unstated.

Look over these answered cases.
1) AB-007028 (antibody, V domains shown) VH: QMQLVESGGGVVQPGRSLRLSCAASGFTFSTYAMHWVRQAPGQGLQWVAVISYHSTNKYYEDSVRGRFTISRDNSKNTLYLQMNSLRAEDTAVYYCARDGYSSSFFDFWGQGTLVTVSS VL: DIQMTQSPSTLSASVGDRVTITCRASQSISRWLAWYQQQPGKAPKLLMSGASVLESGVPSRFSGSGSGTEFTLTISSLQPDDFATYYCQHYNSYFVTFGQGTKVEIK; 4.26
2) AB-007040 (antibody, V domains shown) VH: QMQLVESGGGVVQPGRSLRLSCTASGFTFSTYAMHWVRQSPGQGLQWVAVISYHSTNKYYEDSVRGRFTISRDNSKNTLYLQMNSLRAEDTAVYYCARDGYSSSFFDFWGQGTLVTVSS VL: DIQMTQSPSTLSASVGDRVAITCRASQSISRWLAWYQQQPGKAPKLLMSGASVLESGVPSRFSGSGSGTEFTLTISSLQPDDFATYYCQHYNSYYVTFGQGTKVEIK; 4.67
3) AB-007062 (antibody, V domains shown) VH: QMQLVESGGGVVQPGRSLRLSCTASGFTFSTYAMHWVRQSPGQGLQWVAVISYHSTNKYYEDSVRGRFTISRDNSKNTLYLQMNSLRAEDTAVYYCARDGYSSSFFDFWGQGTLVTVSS VL: DIQMTQSPSTLSASVGDRVAITCRASQSISSWLAWYQQQPGKAPKLLMSGASVLESGVPSRFSGSGSGTEFTLTISSLQPDDFATYYCQHYNSYFVTFGQGTKVEIK; 13.6

Then there is this binder:
Short answer for AB-007045 (antibody, V domains shown) VH: QMQLVESGGGVVQPGRSLRLSCTASGFTFSTYAMHWVRQSPGQGLQWVAVISYHSTNKYYEDSVRGRFTISRDNSKNTLYLQMNSLRAEDTAVYYCARDAYSSSFFDFWGQGTLVTVSS VL: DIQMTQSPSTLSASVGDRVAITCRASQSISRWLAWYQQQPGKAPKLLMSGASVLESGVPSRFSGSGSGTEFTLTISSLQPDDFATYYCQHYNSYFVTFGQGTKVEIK : Kd was 43.9
